The following sequences are listed with their measured Tm values.
Experiment: melting temperature; fluorescence melt of hairpins on a sequencing array, two-state fit, raised by 9.35 °C to match UV melts
Details: sodium 0.088 M
The figure you give is taken to be in °C; do not add the unit.

Some solved cases for reference:
GCGAAGCGAAAGCATTGC ((.(.((....)).).)); 39.1
GGTTGCGGAAACGCGATC (.(.(((....))).).); 41.7
GTCGCCGAAAGGCAGGAC ((((((....)))..))); 50.4
GCGGGGAGCCGC ((((....)))); 62.7
GCACACGGAAACGTACGC ((..(((....)))..)); 35.6
GCAGGGCGAAAGCCTGC (((.(((....)))))); 68
GCTTCGCGAAAGCGCGGC ((..(((....)))..)); 39.6
GACGACGAAAGTCGGGTC ((((((....)))..))); 64.1

Task: Requested field: Tm. Item: GGGAGTGGAAACACCCCC (((.(((....))).)))
Result: 49.2

Task: Requested field: Tm. Item: GTCGCGCCGAAAGGCGAC (((..(((....))))))
Result: 43

Task: Requested field: Tm. Item: GGGGATGGAAACGTCTCC ((.((.(....).)).))
Result: 36.5

Task: Requested field: Tm. Item: GATCCCCTGGGGGATC ((((((....))))))
Result: 66.6

Task: Requested field: Tm. Item: GCCTAGCGAAAGCGACGC ((.(.((....)).).))
Result: 47.8

====

Experiment: folding enthalpy; higher = less favourable; fluorescence melt of hairpins on a sequencing array, two-state fit
Settings: sodium 0.088 M
Threshold check on folding enthalpy: at or above -30 kcal/mol gives Fulfilled, strictly below gives Not fulfilled.

Task: Is folding enthalpy at least -30 kcal/mol? Consider GATCACGAACGTGATC ((((((....))))))
Result: Not fulfilled

Task: Is folding enthalpy at least -30 kcal/mol? Consider GGAAACGGAAACATTTCC (((((.(....).)))))
Result: Fulfilled

Task: Is folding enthalpy at least -30 kcal/mol? Consider GCAAAGCGAAAGCATAGC ((.(.((....)).).))
Result: Fulfilled

Task: Is folding enthalpy at least -30 kcal/mol? Consider GATCAAAATCTTGATC ((((((....))))))
Result: Fulfilled

Task: Is folding enthalpy at least -30 kcal/mol? Consider GGGCCTCCGAAAGGACCC (((..(((....))))))
Result: Fulfilled

Task: Is folding enthalpy at least -30 kcal/mol? Consider GGGGCTGGAAACGGCTCC ((.((.(....).)).))
Result: Not fulfilled

Task: Is folding enthalpy at least -30 kcal/mol? Consider GGTGGTGGAAACGTCACC ((((..(....)..))))
Result: Fulfilled

Task: Is folding enthalpy at least -30 kcal/mol? Consider CCAATGAAAATTGG (((((....)))))
Result: Fulfilled

Task: Is folding enthalpy at least -30 kcal/mol? Consider GCGAGGGATCGC ((((....))))
Result: Fulfilled

Task: Is folding enthalpy at least -30 kcal/mol? Consider GCGTAGCGAAAGCTTCGC (((.(((....))).)))
Result: Not fulfilled

====

Test: melting temperature; fluorescence melt of hairpins on a sequencing array, two-state fit, raised by 9.35 °C to match UV melts
Conditions: sodium 0.088 M
READOUT_KIND: Tm (°C)
The figure you give is taken to be in °C; do not add the unit.

GTAATCGGAAACGATTAC (((((((....))))))); 56.4
GATCCACTTATGGATC ((((((....)))))); 50.8
GCGCTCGGAAACAAGCGC (((((.(....).))))); 55.9
GCCTCGCGAAAGCGCGGC (((.(((....))).))); 61.3
GCGACTTATCGC ((((....)))); 48.8

Now let's try a different one.
Task: Requested field: Tm. Item: GGTTATCGAAAGATGACC (((.(((....))).)))
Result: 51.7

====

Assay: folding enthalpy; higher = less favourable; fluorescence melt of hairpins on a sequencing array, two-state fit
Conditions: sodium 0.088 M
Threshold check on folding enthalpy: at or above -20 kcal/mol gives condition met, strictly below gives condition not met.

GGGAACGAAAGTTGCCCC ((((((....)))..))); condition met
GATCTCCGTAGAGATC ((((((....)))))); condition not met
GGTTGGGGAAACTCAGCC ((.((.(....).)).)); condition not met
GCGAAGTGTCGC ((((....)))); condition met
GTTGGTGGAAACACCAGC (.(((((....))))).); condition not met

Shifting focus to the sequence that follows.
Task: Is folding enthalpy at least -20 kcal/mol? Consider GCACGGCGAAAGCGGGGC ((.(.((....)).).))
Result: condition not met

====

Assay: melting temperature; fluorescence melt of hairpins on a sequencing array, two-state fit, raised by 9.35 °C to match UV melts
Conditions: sodium 0.088 M
Threshold check on Tm: at or above 50 °C gives fulfilled, strictly below gives not fulfilled.

Worked examples follow.
GCTTGGCGAAAGCCAGGC ((.((((....)))).)); fulfilled
CGAGCGGAAACGCAATCG ((((((....)))..))); not fulfilled
GATCAAATTTTGATC ((((((...)))))); not fulfilled
GAGCCGGGAAACTGGCTC (((((.(....).))))); fulfilled
GCGCTCGAAAGAGTTCGC ((((((....)))..))); not fulfilled

Task: Is Tm at least 50 °C? Consider GTCGTACGAAAGTATGAC (((.(((....))).)))
Result: fulfilled

Task: Is Tm at least 50 °C? Consider GGACACCCGAAAGGGTCC (((..(((....))))))
Result: not fulfilled

Task: Is Tm at least 50 °C? Consider GGGAGGCGAAAGCCCCC (((.(((....))))))
Result: fulfilled

Task: Is Tm at least 50 °C? Consider GGTGGGGGAAACCCCGCC ((.((((....)))).))
Result: fulfilled

Task: Is Tm at least 50 °C? Consider GATCTCCCTGGAGATC ((((((....))))))
Result: fulfilled

Task: Is Tm at least 50 °C? Consider GCTAGGCGAAAGCGGAGC (((..((....))..)))
Result: not fulfilled

Task: Is Tm at least 50 °C? Consider CGCGGACAATTCCGCG ((((((....))))))
Result: fulfilled

Task: Is Tm at least 50 °C? Consider GATCCACTGGTGGATC ((((((....))))))
Result: fulfilled

====

Assay: melting temperature; fluorescence melt of hairpins on a sequencing array, two-state fit, raised by 9.35 °C to match UV melts
Details: sodium 0.088 M
READOUT_KIND: Tm (°C)
The figure you give is taken to be in °C; do not add the unit.

Some solved cases for reference:
GATCGAAAGTCGATC ((((((...)))))); 48.8
GTAATTCGAAAGAATAC (((.(((....)))))); 32
GGTTAGGGAAACCTGATC (.(.(((....))).).); 31
GAATTCGCGAAAGCGTTC (((..(((....)))))); 19.9
GATCGAGCATCGATC ((((((...)))))); 58.7
GCTAGGCGAAAGCTGAGC (((..((....))..))); 53.6

Now let's try a different one.
Task: Requested field: Tm. Item: GCGAGGACTCGC ((((....))))
Result: 56.1

====

The following sequences are listed with their measured folding enthalpy values.
Experiment: folding enthalpy; higher = less favourable; fluorescence melt of hairpins on a sequencing array, two-state fit
Settings: sodium 0.088 M
Put down the number, then write its unit next to it.

Some solved cases for reference:
GATCCGGTATCGGATC ((((((....)))))); -42.5 kcal/mol
GATCGGTCGTCCGATC ((((((....)))))); -40.9 kcal/mol
GTCGCAGAAATGCGAC ((((((....)))))); -38.1 kcal/mol
GATCCAAGTCTGGATC ((((((....)))))); -41.8 kcal/mol
GATCTGCTCACAGATC ((((((....)))))); -36.9 kcal/mol

Now let's try a different one.
Task: Requested field: folding enthalpy. Item: GCGGAACGAAAGTTTCGC (((.(((....))).)))
Result: -51.9 kcal/mol

====

Assay: melting temperature; fluorescence melt of hairpins on a sequencing array, two-state fit, raised by 9.35 °C to match UV melts
Conditions: sodium 0.088 M
Threshold check on Tm: at or above 50 °C gives fulfilled, strictly below gives not fulfilled.

Worked examples follow.
GTGACAGAAATGTCAC ((((((....)))))); fulfilled
GTGTGCGGAAACGTACAC ((((.((....)).)))); fulfilled
GTTTGAGGAAACTTAGAC ((.(.((....)).).)); not fulfilled
GGACTCGAAAGAGCCTCC ((((((....)))..))); not fulfilled
GATCTTCGGTAAGATC ((((((....)))))); not fulfilled
GGTTACGAAAGTAATACC ((((((....)))..))); not fulfilled
GCAAACGAAAGTTATTGC ((((((....)))..))); not fulfilled
GAGCCACGAAAGTGCCTC (((.(((....))).))); not fulfilled

Task: Is Tm at least 50 °C? Consider GCCTCTGGAAACGGAGGC (((((.(....).)))))
Result: fulfilled

Task: Is Tm at least 50 °C? Consider GAATGGGGAAACCTGTTC (((..((....))..)))
Result: not fulfilled

Task: Is Tm at least 50 °C? Consider GATCCTACATAGGATC ((((((....))))))
Result: fulfilled
